# ASSAYED SYSTEM: L-type calcium channel (Rattus norvegicus, UniProt P22002)
# Construct: membrane fragments of rat cardiac muscle; from tissue; host or cells: rat cardiac muscle membranes
# Sequence (P22002 whole entry, other chains not shown, the tested form may be a part): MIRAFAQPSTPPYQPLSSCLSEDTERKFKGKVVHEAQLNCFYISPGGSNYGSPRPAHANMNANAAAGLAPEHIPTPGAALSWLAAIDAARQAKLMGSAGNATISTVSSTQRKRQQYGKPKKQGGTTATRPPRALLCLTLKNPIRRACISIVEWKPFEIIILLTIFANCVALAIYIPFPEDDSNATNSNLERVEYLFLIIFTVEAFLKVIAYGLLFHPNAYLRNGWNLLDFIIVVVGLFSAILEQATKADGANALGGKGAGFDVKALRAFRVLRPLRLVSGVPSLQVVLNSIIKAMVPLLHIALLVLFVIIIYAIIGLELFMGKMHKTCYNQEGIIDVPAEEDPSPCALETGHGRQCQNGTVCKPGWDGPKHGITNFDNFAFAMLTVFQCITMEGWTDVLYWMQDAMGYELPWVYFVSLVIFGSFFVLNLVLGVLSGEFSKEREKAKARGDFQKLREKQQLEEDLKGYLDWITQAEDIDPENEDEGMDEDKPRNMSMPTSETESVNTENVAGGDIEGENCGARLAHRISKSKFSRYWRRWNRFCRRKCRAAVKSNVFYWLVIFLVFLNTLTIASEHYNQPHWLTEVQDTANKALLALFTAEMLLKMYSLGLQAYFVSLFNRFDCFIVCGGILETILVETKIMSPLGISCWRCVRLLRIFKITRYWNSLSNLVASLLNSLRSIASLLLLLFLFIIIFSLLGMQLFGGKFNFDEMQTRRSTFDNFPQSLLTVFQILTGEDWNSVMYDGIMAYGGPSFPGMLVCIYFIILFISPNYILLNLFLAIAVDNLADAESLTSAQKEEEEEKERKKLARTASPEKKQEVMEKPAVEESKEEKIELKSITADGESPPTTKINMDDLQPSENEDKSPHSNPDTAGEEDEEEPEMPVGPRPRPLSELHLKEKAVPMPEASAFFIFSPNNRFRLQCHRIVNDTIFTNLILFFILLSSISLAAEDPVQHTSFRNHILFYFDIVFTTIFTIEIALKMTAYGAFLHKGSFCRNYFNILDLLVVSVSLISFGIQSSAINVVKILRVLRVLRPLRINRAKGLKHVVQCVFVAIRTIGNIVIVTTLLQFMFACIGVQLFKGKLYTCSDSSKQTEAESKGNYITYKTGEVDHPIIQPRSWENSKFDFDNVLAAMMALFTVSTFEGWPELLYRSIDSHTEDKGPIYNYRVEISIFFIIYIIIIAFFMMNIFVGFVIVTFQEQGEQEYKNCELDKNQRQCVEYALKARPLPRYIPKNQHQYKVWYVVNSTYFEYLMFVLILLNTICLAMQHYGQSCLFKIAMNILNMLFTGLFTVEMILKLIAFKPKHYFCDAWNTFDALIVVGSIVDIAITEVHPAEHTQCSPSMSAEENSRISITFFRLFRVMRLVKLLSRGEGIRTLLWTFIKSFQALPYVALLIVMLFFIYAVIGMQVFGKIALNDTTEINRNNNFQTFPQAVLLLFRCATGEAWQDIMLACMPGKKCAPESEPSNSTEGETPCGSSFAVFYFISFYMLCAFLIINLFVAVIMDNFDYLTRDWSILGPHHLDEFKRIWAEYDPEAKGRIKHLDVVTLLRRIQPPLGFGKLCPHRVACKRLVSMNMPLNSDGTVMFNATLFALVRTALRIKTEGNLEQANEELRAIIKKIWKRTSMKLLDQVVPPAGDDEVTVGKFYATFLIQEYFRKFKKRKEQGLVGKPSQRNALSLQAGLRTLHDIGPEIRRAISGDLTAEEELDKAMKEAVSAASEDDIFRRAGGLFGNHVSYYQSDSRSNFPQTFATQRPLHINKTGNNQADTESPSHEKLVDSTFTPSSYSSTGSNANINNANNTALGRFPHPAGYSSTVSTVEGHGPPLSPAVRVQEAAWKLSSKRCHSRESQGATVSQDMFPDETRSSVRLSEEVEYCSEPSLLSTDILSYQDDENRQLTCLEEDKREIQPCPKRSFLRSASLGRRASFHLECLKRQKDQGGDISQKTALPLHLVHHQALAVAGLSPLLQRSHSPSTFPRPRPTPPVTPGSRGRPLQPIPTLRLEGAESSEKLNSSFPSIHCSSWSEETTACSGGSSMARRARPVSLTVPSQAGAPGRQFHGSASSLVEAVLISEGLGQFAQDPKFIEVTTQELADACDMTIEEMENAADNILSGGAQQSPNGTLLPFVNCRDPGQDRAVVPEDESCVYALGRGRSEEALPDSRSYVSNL
# Sequence (P54290 25-944 partner limits assumed, other chains not shown): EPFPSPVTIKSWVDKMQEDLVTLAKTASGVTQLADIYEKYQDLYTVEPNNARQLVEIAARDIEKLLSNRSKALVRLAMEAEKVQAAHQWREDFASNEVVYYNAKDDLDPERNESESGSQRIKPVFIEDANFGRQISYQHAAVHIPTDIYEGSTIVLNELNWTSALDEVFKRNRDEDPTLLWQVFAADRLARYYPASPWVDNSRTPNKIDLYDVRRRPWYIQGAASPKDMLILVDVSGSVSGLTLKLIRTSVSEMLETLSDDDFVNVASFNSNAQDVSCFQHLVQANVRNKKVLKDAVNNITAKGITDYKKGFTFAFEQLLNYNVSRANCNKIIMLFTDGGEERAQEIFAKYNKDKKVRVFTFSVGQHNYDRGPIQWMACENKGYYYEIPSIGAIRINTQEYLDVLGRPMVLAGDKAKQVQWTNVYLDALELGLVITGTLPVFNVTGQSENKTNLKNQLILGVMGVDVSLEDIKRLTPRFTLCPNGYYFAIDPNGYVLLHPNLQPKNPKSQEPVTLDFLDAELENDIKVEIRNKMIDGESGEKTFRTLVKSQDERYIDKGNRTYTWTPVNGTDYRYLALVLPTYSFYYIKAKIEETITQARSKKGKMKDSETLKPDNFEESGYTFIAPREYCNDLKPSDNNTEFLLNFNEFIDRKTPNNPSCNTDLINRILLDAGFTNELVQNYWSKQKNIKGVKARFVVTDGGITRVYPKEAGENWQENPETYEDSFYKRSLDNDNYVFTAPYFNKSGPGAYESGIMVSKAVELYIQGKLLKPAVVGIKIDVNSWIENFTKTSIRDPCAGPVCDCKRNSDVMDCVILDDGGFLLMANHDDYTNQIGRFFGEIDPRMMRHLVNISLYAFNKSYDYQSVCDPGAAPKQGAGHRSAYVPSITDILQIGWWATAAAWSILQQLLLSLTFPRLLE
# Sequence (P54290 945-1091 partner limits assumed, other chains not shown): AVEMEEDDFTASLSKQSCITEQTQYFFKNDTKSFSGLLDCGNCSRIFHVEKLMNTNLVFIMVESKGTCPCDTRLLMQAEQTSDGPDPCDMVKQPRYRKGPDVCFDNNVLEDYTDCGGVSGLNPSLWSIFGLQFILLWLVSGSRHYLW
# ASSAY REMARKS: Competition binding of [3H]nitrendipine to membrane fragments of rat cardiac muscle
# EXPERIMENTAL PARAMETERS: [3H]nitrendipine, rat cardiac muscle membrane fragments, L-type calcium channel; read-out: pKi Ca (converted)
Ki values for the compounds below.

{"columns": ["COMPOUND", "Ki / µM"],
 "data": [
  ["CCC1=C(C(N)=O)C(c2ccc([N+](=O)[O-])cc2)C(C(=O)NCCCN2CCN(c3ccccc3OC)CC2)=C(CC)N1 (stereo not shown)", 38],
  ["CCC1=C(C(N)=O)C(c2ccc([N+](=O)[O-])cc2)C(C(=O)NCCCN2CCC(c3ccccc3)CC2)=C(CC)N1 (stereo not shown)", 16.6],
  ["CCC1=C(C(=O)NCCCN2CCC(c3ccccc3)(c3ccccc3)CC2)C(c2cccc(OC)c2)C(C(N)=O)=C(C)N1 (stereo not shown)", 1000],
  ["CCCC1=C(C(=O)O)C(c2ccc([N+](=O)[O-])cc2)C(C(=O)NCCCN2CCC(c3ccccc3)(c3ccccc3)CC2)=C(CCC)N1 (stereo not shown)", 1000]
]}

All figures here come from patent US6608086B2.
